What follows is a record of pIC50 for MAPK14 (human).
Here pIC50 is given on a logarithmic scale as minus log10 of the concentration in mol/L.

Consider the reported pIC50 for these compounds:
RECORD SMILES: Cc1cccc(-c2nc(-c3ccccc3C)sc2-c2ccncc2)c1
SYSTEM TESTED: MAPK14 (human)
MEASURED QUANTITY: pIC50
VALUE REPORTED: 7.16
//
RECORD SMILES: Cc1cccc(-c2nc(N)sc2-c2ccncc2)c1
SYSTEM TESTED: MAPK14 (human)
MEASURED QUANTITY: pIC50
VALUE REPORTED: 8.14
//
RECORD SMILES: CC(=O)Nc1nc(-c2cccc(F)c2)c(-c2ccncc2)s1
SYSTEM TESTED: MAPK14 (human)
MEASURED QUANTITY: pIC50
VALUE REPORTED: 6.85
//
RECORD SMILES: COc1ccc(-c2nc(NC(C)=O)sc2-c2ccncc2)cc1
SYSTEM TESTED: MAPK14 (human)
MEASURED QUANTITY: pIC50
VALUE REPORTED: 7.13
//
RECORD SMILES: COc1cccc(-c2nc(NC(C)=O)sc2-c2ccncc2)c1
SYSTEM TESTED: MAPK14 (human)
MEASURED QUANTITY: pIC50
VALUE REPORTED: 7.14

Name the recorded pIC50 of Cc1cccc(-c2nc(C)sc2-c2ccncc2)c1 , assay system MAPK14 (human).
7.57

Given CC(=O)N(C)c1nc(-c2cccc(C)c2)c(-c2ccncc2)s1 , report its pIC50 on MAPK14 (human).
7.32
